molecular target: human Na,K-ATPase α1β1FXYD1 (Homo sapiens (Human)); assay type: biochemical; conditions: read-out: apparent vanadate affinity α1β1
quantityKind: Ki (nM)
Kindly answer with a numeric value in nM, unit omitted.

query: I'd like to know its Ki. The molecule in question is [O]=[V]([OH])([OH])[OH] [Vanadate, vanadate, reference compound]
result: 480

----------
target: human Na,K-ATPase α1β1FXYD1 (Homo sapiens (Human), UniProt P05023); type: biochemical; details: read-out: Ki in nM ± SEM α1β1
Threshold check on Ki: strictly below 100 nM is met; on or above 100 nM is not met.

Record excerpt, results attached:
1) CC1CN(CS(C)(=O)=O)CCC(O[C@@H]2C(C)O[C@@H](OC3C(C)OC(O[C@H]4CC[C@@]5(C)C(CCC6C5CC(O)[C@]5(C)[C@@H](C7=CC(=O)OC7)CC[C@]65O)C4)C[C@@H]3O)C[C@@H]2O)O1 (stereo in doubt)
not met
2) CC1CN(C[Si](C)(C)C)CCC(OC2C(O)CC(OC3C(O)CC(OC4CCC5(C)C(CCC6C5CC(O)C5(C)C(C7=CC(=O)OC7)CCC65O)C4)OC3C)OC2C)O1 (stereo not drawn)
met
3) CC(C)CN1CCC(O[C@@H]2[C@H](C)O[C@@H](O[C@@H]3[C@H](C)O[C@@H](O[C@H]4CC[C@@]5(C)C(CCC6C5C[C@H](O)[C@]5(C)[C@@H](C7=CC(=O)OC7)CC[C@]65O)C4)C[C@@H]3O)C[C@@H]2O)OC(C)C1 (stereo partly drawn)
met
4) CC1CN(C2CC2)CCC(O[C@@H]2[C@H](C)O[C@@H](O[C@@H]3[C@H](C)O[C@@H](O[C@H]4CC[C@@]5(C)C(CCC6C5C[C@H](O)[C@]5(C)[C@@H](C7=CC(=O)OC7)CC[C@]65O)C4)C[C@@H]3O)C[C@@H]2O)O1 (stereo partly drawn)
not met
5) CC1CN(C2CCC2)CCC(O[C@@H]2[C@H](C)O[C@@H](O[C@@H]3[C@H](C)O[C@@H](O[C@H]4CC[C@@]5(C)C(CCC6C5C[C@H](O)[C@]5(C)[C@@H](C7=CC(=O)OC7)CC[C@]65O)C4)C[C@@H]3O)C[C@@H]2O)O1 (stereo partly drawn)
not met

query: Dear colleague, could you confirm whether Ki of CC1CN(C2CCCC2)CCC(O[C@@H]2C(C)O[C@@H](OC3C(C)OC(O[C@H]4CC[C@@]5(C)C(CCC6C5CC(O)[C@]5(C)[C@@H](C7=CC(=O)OC7)CC[C@]65O)C4)C[C@@H]3O)C[C@@H]2O)O1 (stereo in doubt) falls below 100 nM? Thanks.
result: not met

query: Here is the next molecule: CC1CN(CCS(C)(=O)=O)CCC(O[C@@H]2C(C)O[C@@H](OC3C(C)OC(O[C@H]4CC[C@@]5(C)C(CCC6C5CC(O)[C@]5(C)[C@@H](C7=CC(=O)OC7)CC[C@]65O)C4)C[C@@H]3O)C[C@@H]2O)O1 (stereo in doubt)
result: not met

query: Proceed to CC1CN(C2CCCCC2)CCC(O[C@@H]2C(C)O[C@@H](OC3C(C)OC(O[C@H]4CC[C@@]5(C)C(CCC6C5CC(O)[C@]5(C)[C@@H](C7=CC(=O)OC7)CC[C@]65O)C4)C[C@@H]3O)C[C@@H]2O)O1 (stereo in doubt)
result: met
